Measured values drawn from patent US20260092074A1 for this set.

Molecular target: human CYP11B1 (Homo sapiens, UniProt P15538)
Sequence (P15538 25-503): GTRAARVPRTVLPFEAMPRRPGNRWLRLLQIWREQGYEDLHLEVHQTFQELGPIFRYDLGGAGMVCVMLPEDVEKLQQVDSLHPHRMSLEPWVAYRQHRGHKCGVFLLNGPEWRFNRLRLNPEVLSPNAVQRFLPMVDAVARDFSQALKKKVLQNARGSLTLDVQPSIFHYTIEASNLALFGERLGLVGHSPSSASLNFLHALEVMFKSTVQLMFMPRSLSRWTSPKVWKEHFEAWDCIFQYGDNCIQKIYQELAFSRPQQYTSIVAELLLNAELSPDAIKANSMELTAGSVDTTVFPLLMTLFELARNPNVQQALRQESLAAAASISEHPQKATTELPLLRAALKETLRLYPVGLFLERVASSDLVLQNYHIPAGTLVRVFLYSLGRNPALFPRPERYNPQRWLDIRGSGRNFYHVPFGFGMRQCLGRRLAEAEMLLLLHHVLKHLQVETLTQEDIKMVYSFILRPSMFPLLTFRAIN
Experiment: Inhibition of hCYP11B1 in transfected V79 cells
Settings: hamster V79 cells expressing human CYP11B1; substrate 11-deoxycortisol 200 nM
pIC50: −log10 of the molar value.
reported property: pIC50

N#Cc1ccc2oc(-c3cncc4c3OCCN4)cc2c1
6.42
N#Cc1ccc(-c2cncc3c2CCN3S(=O)(=O)c2cccs2)cc1
8.11
Cc1ccccc1C(=O)n1ccc2c(-c3ccc(C#N)cc3)cncc21
7.14
N#Cc1ccc(-c2cncc3c2SCCN3S(=O)(=O)C2CN(S(=O)(=O)c3ccc(C#N)cc3)C2)cc1
7.62
N#Cc1ccc(-c2cncc3c2OCCN3S(=O)(=O)C2CN(Cc3ccc(F)cc3)C2)cc1
7.59

(P) N#Cc1ccc(-c2cncc3c2OCCN3C(=O)C2CN(c3cccc(F)c3)C2)cc1
(Q) N#Cc1ccc(-c2cncc3c2CCN3C(=O)c2ccccc2F)cc1
Req: Which entry shows the lesser value of pIC50 here, P or Q ? The response must carry the label of the picked entry.
Resp: Q

---

Molecular target: human CYP11B2 (Homo sapiens, UniProt P19099)
Sequence (P19099 25-503): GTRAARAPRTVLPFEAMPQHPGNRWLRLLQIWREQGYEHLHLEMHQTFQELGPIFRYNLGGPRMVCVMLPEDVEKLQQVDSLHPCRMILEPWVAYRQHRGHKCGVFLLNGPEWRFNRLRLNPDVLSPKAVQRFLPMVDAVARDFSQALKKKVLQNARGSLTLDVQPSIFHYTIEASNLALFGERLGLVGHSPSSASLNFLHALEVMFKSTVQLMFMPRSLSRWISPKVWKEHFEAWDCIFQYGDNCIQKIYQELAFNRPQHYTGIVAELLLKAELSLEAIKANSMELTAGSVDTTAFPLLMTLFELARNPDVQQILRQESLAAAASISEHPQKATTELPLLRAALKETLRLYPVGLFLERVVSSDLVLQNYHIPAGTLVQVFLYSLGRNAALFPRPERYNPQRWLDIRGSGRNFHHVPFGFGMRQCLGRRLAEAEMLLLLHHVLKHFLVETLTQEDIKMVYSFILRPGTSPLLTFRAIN
Assay: Inhibition of hCYP11B2 in transfected V79 cells
Conditions: hamster V79 cells expressing human CYP11B2; substrate 11-deoxycorticosterone 200 nM
Protocol: Genes of human CYP11B2 and rat NADPH-P450 reductase were transfected into hamster V79 cells using a lentivirus vector, and stably-expressing cell lines were selected by taking advantages of the associated puromycin-resistance gene. […] Subsequently, the substrate and product(s) were quantified using LC-MS/MS or HPLC at 260 nm, and the IC50 values were calculated according to inhibitory percentage.
reported property: IC50 (nM)

N#Cc1ccc(-c2cncc3c2CCN3S(=O)(=O)c2cccnc2)cc1
1.3
Cc1cccc(CC(=O)N2CCc3c(-c4ccc(C#N)cc4)cncc32)c1
0.9
N#Cc1ccc(-c2cncc3c2OCCN3S(=O)(=O)c2cccc([N+](=O)[O-])c2)cc1
0.41
N#Cc1ccc(-c2cncc3c2OCCN3C(=O)[C@@H]2CCN(Cc3cccc(F)c3)C2)cc1
29
N#CN1CCN(c2cncc3c2OCCN3C(=O)C2CN(Cc3cccc(F)c3)C2)CC1
46

(1) N#Cc1ccc(-c2cncc3c2CCN3C(=O)c2ccccc2F)cc1
(2) O=C(c1ccccc1F)N1CCc2c(-c3ccc(Cl)cc3)cncc21
(3) N#Cc1ccc(-c2cncc3c2OCCN3S(=O)(=O)C2CN(S(=O)(=O)c3ccc(F)cc3)C2)cc1
(4) COc1cccc(CN2CC(C(=O)N3CCOc4c(-c5ccc(C#N)cc5)cncc43)C2)c1
Req: Order the 4 compounds from highest to lowest IC50. Rank the items, then write their labels in that order.
Resp: 2, 1, 3, 4
(2: 45 nM, 1: 4.6 nM, 3: 3.1 nM, 4: 1.4 nM)
